Sourced from ChEMBL document CHEMBL4359905

Target: Bromodomain-containing protein 3 (Homo sapiens, UniProt Q15059)
Sequence (Q15059 whole entry, the tested form may be a part): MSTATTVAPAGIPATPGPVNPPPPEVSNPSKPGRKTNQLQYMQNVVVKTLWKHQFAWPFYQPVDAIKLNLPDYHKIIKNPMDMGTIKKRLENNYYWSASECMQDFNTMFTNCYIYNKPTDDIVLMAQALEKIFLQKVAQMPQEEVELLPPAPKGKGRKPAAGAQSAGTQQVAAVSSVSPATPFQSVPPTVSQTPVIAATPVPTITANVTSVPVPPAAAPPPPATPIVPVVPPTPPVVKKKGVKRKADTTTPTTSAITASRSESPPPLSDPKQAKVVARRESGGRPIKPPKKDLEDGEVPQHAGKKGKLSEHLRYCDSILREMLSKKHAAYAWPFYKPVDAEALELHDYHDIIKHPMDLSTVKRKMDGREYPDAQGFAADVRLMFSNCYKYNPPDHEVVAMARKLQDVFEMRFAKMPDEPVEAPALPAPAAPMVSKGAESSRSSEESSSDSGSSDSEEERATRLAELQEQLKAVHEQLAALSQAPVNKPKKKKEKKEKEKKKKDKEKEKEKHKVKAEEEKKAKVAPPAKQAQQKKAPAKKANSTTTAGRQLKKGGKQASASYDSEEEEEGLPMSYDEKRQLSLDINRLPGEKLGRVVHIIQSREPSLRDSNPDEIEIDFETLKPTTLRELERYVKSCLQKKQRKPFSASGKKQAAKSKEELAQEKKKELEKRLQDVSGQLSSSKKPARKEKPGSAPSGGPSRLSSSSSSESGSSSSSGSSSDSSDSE
Test: Binding affinity to human partial length BRD3 BD1 (P24 to E144 residues) expressed in bacterial expression system by bromoscan assay
MEASURED PROPERTY: pKd
Friendly reminder that pKd comes from taking -log10 of the concentration in mol/L.

Problem: Would you kindly share the measured pKd for "Cc1nnc2n1-c1ccc(-c3cnn(C)c3)cc1[C@H](Nc1ccc(Cl)cc1)CC2" ?
Result: 7.92

---

Biological target: Bromodomain-containing protein 2 (Homo sapiens, UniProt P25440)
Sequence (P25440 whole entry, the tested form may be a part): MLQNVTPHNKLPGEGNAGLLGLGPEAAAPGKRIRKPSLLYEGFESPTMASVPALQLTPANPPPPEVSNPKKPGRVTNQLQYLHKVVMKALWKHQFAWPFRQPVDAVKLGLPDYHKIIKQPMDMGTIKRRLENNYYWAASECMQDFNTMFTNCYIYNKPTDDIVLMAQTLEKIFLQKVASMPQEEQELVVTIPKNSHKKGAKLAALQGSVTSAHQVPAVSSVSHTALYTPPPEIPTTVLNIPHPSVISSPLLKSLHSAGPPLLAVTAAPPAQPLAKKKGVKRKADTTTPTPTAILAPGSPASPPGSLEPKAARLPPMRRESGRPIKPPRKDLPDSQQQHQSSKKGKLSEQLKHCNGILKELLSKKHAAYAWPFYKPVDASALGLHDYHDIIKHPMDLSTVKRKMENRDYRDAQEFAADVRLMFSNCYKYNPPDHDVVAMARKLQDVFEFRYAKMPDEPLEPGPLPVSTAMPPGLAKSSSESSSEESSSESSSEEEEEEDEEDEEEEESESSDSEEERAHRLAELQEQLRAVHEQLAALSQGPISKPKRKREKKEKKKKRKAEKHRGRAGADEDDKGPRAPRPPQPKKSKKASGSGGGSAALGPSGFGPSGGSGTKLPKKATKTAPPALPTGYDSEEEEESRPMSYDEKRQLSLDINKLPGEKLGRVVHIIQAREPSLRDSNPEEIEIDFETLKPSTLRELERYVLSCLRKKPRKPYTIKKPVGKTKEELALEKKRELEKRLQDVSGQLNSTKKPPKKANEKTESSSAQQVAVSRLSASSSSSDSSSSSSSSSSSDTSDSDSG
Test: Binding affinity to human recombinant BRD2 BD1 (72 to 205 residues) by fluorescence polarization assay
Measured pKi by item
pKi here: minus log base 10 of the concentration, concentration in moles per litre.

These solved cases illustrate the format of a correct answer.
[
  {
    "MOLECULE": "Cc1nnc2n1-c1ccc(-c3cn[nH]c3)cc1C(Nc1ccc(Cl)cc1)CC2 (centres undefined)",
    "pKi": 6.57
  },
  {
    "MOLECULE": "CCn1cc(-c2ccc3c(c2)C(Nc2ccc(Cl)cc2)CCc2nnc(C)n2-3)cn1 (centres undefined)",
    "pKi": 6.71
  },
  {
    "MOLECULE": "Cc1nnc2n1-c1ccc(-c3cnn(C)c3)cc1[C@H](Nc1ccc(Cl)cc1)CC2",
    "pKi": 7.02
  }
]

Next, consider the following molecule.
Problem: Reported pKi, molecule Cc1nnc2n1-c1ccc(-c3cnn(C)c3)cc1C(Nc1ccc(Cl)cc1)CC2 (centres undefined) : ____
Result: 6.56

---

Test: AUC (0 to t) in ICR mouse at 5 mg/kg, iv measured upto 24 hrs by LC-MS/MS analysis
Type: ADME, organism-based
Set-up: dose 5 mg/kg, time < 24 hr, route intravenous
Conditions: in vivo
MEASURED PROPERTY: AUC(0-t) at 24 h (ng·h/mL)
The response must be a number in ng·h/mL with no trailing unit.

Problem: Quick check: AUC(0-t) at 24 h of "Cc1nnc2n1-c1ccc(-c3cnn(C)c3)cc1[C@H](Nc1ccc(Cl)cc1)CC2" ?
Result: 3320

---

Assay: Cmax in ICR mouse at 15 mg/kg, po measured upto 24 hrs by LC-MS/MS analysis
Assay type: ADME, organism-based
Set-up: dose 15 mg/kg, route oral
Settings: in vivo
MEASURED PROPERTY: Cmax (ng/mL)
Kindly provide the numeric value in ng/mL only, without the unit symbol.

Problem: # get_value(readout='Cmax', item= "Cc1nnc2n1-c1ccc(-c3cnn(C)c3)cc1[C@H](Nc1ccc(Cl)cc1)CC2" )
Result: 2210

---

Listing of recorded Ki by entry.
Target: Bromodomain-containing protein 3 (Homo sapiens, UniProt Q15059)
Experiment: Binding affinity to human recombinant BRD3 BD2 (306 to 417 residues) by fluorescence polarization assay

Use the examples below as a reference point.
[
  {
    "COMPOUND": "Cc1nnc2n1-c1ccc(-c3cn[nH]c3)cc1C(Nc1ccc(Cl)cc1)CC2 (centres undefined)",
    "TARGET OR SYSTEM": "Bromodomain-containing protein 3 (Homo sapiens, UniProt Q15059)",
    "MEASURED PROPERTY": "Ki",
    "REPORTED RESULT": "13.9 nM"
  },
  {
    "COMPOUND": "CCn1cc(-c2ccc3c(c2)C(Nc2ccc(Cl)cc2)CCc2nnc(C)n2-3)cn1 (centres undefined)",
    "TARGET OR SYSTEM": "Bromodomain-containing protein 3 (Homo sapiens, UniProt Q15059)",
    "MEASURED PROPERTY": "Ki",
    "REPORTED RESULT": "8.2 nM"
  },
  {
    "COMPOUND": "Cc1nnc2n1-c1ccc(-c3cnn(C)c3)cc1C(Nc1ccc(Cl)cc1)CC2 (centres undefined)",
    "TARGET OR SYSTEM": "Bromodomain-containing protein 3 (Homo sapiens, UniProt Q15059)",
    "MEASURED PROPERTY": "Ki",
    "REPORTED RESULT": "11.1 nM"
  }
]

Problem: Would you mind telling me what Ki value was observed for "Cc1nnc2n1-c1ccc(-c3cnn(C)c3)cc1[C@H](Nc1ccc(Cl)cc1)CC2" ?
Result: 5.3 nM
